- STUDY TARGET: Recombinant human LDH-B (Homo sapiens)
- Construct: gene LDHB; commercial recombinant protein (R&D Systems); homotetramer (LDH-1)
- Sequence (P07195 2-334): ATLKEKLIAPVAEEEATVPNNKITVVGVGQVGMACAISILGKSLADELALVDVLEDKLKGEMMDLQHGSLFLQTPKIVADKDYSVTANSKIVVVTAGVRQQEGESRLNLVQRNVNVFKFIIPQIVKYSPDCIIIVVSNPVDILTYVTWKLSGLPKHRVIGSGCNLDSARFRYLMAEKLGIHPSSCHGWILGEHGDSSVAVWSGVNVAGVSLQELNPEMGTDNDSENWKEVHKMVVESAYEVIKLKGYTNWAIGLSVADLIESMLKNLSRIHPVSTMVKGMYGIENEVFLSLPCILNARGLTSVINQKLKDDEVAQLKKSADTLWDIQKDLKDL
- MEASUREMENT DESCRIPTION: NBT/PMS colorimetric kinetics, mixed-model inhibition fit
- Format: biochemical
- CONDITION INFO: read-out: Capmatinib / Lactate
pKi: −log10 of the molar value.

SMILES NOTATION	pKi
CNC(=O)c1ccc(-c2cnc3ncc(Cc4ccc5ncccc5c4)n3n2)cc1F	2.57
